These measurements were taken from patent US20120157421A1.

assay_protocol: metabolic stability in human liver microsomes
Format: in vitro ADME
measurement_conditions: estimated maximum oral bioavailability from human liver microsome incubation; 0.3 μM, 0.5 mg/ml protein, 37° C., 60 min
Decide by Fmax (micros.) [%]: equal to or exceeding 40% means label 1, less means label 0.

IN: Does C[C@]12C[C@H](F)C3c4ccc(O)cc4CC(CCCCCN4CCC[C@H]4CCCCCCC(F)(F)C(F)(F)F)[C@H]3C1CC[C@@]2(C)O (stereo partly shown) [Example 2] have a reported Fmax (micros.) [%] of at least 40%?
OUT: label 0

IN: Record C[C@]1(O)CCC2[C@@H]3C(CCCCCN4CCC[C@H]4CCCCCC(F)(F)C(F)(F)F)Cc4cc(O)ccc4C3[C@@H](F)C[C@@]21C (stereo partly shown) [Example C3, reference compound] ; criterion: Fmax (micros.) [%] no lower than 40%. Met?
OUT: label 0

IN: Could you please find out whether C[C@]12C[C@H](F)C3c4cc(Cl)c(O)c(Cl)c4CC(CCCCCN4CCC[C@H]4CCCCCCC(F)(F)C(F)(F)F)[C@H]3C1CC[C@@]2(C)O (stereo partly shown) [Example 10] has Fmax (micros.) [%] that meets 40% or exceeds it?
OUT: label 0

IN: Check if Fmax (micros.) [%] >= 40% (inclusive). Item: C[C@]12C[C@H](F)C3c4ccc(O)c(Br)c4CC(CCCCCN4CCC[C@H]4CCCCCC(F)(F)C(F)(F)F)[C@H]3C1CC[C@@]2(C)O (stereo partly shown) [Example 8]
OUT: label 1

IN: # bool: Fmax (micros.) [%] of CN(CCCCCCCC(F)(F)C(F)(F)F)CCCCCC1Cc2c(ccc(O)c2Br)C2[C@@H]1C1CC[C@@](C)(O)[C@@]1(C)C[C@@H]2F (stereo partly shown) [Example 5] >= 40%
OUT: label 1

IN: Quick check, Fmax (micros.) [%] >= 40%? C[C@]12C[C@H](F)C3c4ccc(O)c(Cl)c4CC(CCCCCN4CCC[C@H]4CCCCCCC(F)(F)C(F)(F)F)[C@H]3C1CC[C@@]2(C)O (stereo partly shown) [Example 7]
OUT: label 1

IN: Fmax (micros.) [%] >= 40% for C[C@]12C[C@H](F)C3c4ccc(O)c(Br)c4CC(CCCCCN4CCC[C@H]4CCCCCCC(F)(F)C(F)(F)F)[C@H]3C1CC[C@@]2(C)O (stereo partly shown) [Example 6] ?
OUT: label 0

IN: API: above_or_equal(metric=Fmax (micros.) [%], cutoff=40%) for item C[C@]12C[C@H](F)C3c4ccc(O)c(Cl)c4CC(CCCCCN4CCC[C@H]4CCCCCC(F)(F)C(F)(F)F)[C@H]3C1CC[C@@]2(C)O (stereo partly shown) [Example 9]
OUT: label 1

IN: Exam item: decide whether the reported Fmax (micros.) [%] for C[C@]1(O)CCC2[C@@H]3C(CCCCCN4CCC[C@H]4CCCCCCC(F)(F)C(F)(F)F)Cc4cc(O)ccc4C3[C@@H](F)C[C@@]21C (stereo partly shown) [Example C2, reference compound] is at least 40%.
OUT: label 0

IN: Test whether the compound CN(CCCCCCCC(F)(F)C(F)(F)F)CCCCCC1Cc2cc(O)ccc2C2[C@@H]1C1CC[C@](C)(O)[C@@]1(C)C[C@@H]2F (stereo partly shown) [Example C1, reference compound] records Fmax (micros.) [%] of 40% or higher.
OUT: label 0
